# melting point annotations
Quick reminder: number only, in °C, skip the unit.

| compound | readout-kind | endpoint-value |
| --- | --- | --- |
| CCCCCCCCCCCCCCCCCBr | melting point | 32 |
| CC=CC(C)C | melting point | -120 |
| CS(=O)(=O)c1ccc(OC(F)(F)F)cc1 | melting point | 67 |
| CC(=O)Nc1cc(CCNC(=O)c2ccccc2)cc(NC(C)=O)c1CCNC(=O)c1ccccc1 | melting point | 268 |
| CSC(C)=NOC(=O)N(C)SN(C)C(=O)ON=C(C)SC | melting point | 173 |
| Cc1n[nH]c(C)c1-c1ccccc1C(=O)O | melting point | 256 |
| C=CCC1(O)CCC2C3CCC4=CCCCC4C3CCC21C (centres undefined) | melting point | 80 |
| COc1cc2c(cc1OC)[C@@H](C(=O)c1ccc3c(c1OC)C=CC(C)(C)O3)CCO2 | melting point | 118 |
| CCC(C)I (centres undefined) | melting point | -104 |
| CC(C)(C)c1cc(C(C)(C)c2ccc(O)c(C(C)(C)C)c2)ccc1O | melting point | 114 |

Now, please, on to the next compound.
What the record says about COC(=O)CC1Sc2ccccc2NC1=O (centres undefined) : melting point is 143

* * *

readout-kind: melting point

Illustrative cases are given below, each with its answer.
| compound | melting point |
| --- | --- |
| CC(C)(C)OC(=O)N1CCN(Cc2cccc([N+](=O)[O-])c2)CC1 | 84 to 85 °C |
| Cc1onc(-c2c(Cl)cccc2Cl)c1CC#N | 75 to 78 °C |
| COC(=O)c1cncc(Br)c1 | 98 to 100 °C |
| O=C(O)CCC(=O)CCC(=O)O | 142 to 144 °C |
| OCCCc1nc2cc(C(F)(F)F)ccc2[nH]1 | 134 to 135 °C |
| CC(=O)OC1(C(C)=O)CCC2(C)C(CCC3C4CCCC4(C)CCC32)C1 (centres undefined) | 164 to 166 °C |
| N#Cc1ccc([N+](=O)[O-])cc1C(F)(F)F | 52 to 54 °C |
| Cc1cc(C2(c3ccc(O)c(C)c3)CCCCC2)ccc1O | 184 to 185 °C |

Now, please, on to the next compound.
What the record says about CC1(C)OC(CO)C(CO)O1 (single isomer, unassigned; (+)) : melting point is 47 to 51 °C

* * *

# melting point annotations
Quick reminder: number only, in °C, skip the unit.

| compound | melting point [°C] |
| --- | --- |
| NNc1ccccc1C(F)(F)F | 60 |
| CC(C)(C)OC(=O)N[C@@H](CC(=O)OCc1ccccc1)C(=O)O | 111 |
| O=C(O)[C@H]1NCC[C@@H]1O | 235 |
| CC1=C(CC(=O)O)c2cc(F)ccc2C1=Cc1ccc(S(C)=O)cc1 (stereo unspecified) | 184 |
| CCC(C)c1cc([N+](=O)[O-])cc([N+](=O)[O-])c1OC(C)=O (stereo unspecified) | 26 |
| N/N=C(/C(=O)c1ccc2c3c(cccc13)CC2)c1ccccc1 | 200 |
| CCOC(O)=C1C=NC2=C(CNN2C)C1=O | 139 |
| COc1cc(I)cc(C=O)c1O | 129 |
| CC1CCC(C(C)C)C(OC(=O)C(=O)C=Cc2ccccc2)C1 (stereo unspecified) | 45.5 |
| O=S(=O)(Nc1ccc(F)cc1C(F)(F)F)C(F)(F)F | 45 |

What the record says about CN(C)c1ccc(/C=C(\C#N)c2nc(-c3cccc4ccccc34)cs2)cc1 : melting point is 128
